Tested on: SK-MEL-2 melanoma
method: NCI tumour cell line growth inhibition, 48 h

{"compound": "CC(C)(C)OC(=O)n1c(Cl)c(C(=O)N=C=S)c2ccccc21", "assayed_target": "SK-MEL-2 melanoma", "GI50": "24.7 µM"}
{"compound": "CCOC(=O)/N=c1\\ssc(Cl)c1Cl", "assayed_target": "SK-MEL-2 melanoma", "GI50": "12.1 µM"}
{"compound": "C/C(=N\\O)[C@H]1CC[C@@]2(C)[C@@H]3CC[C@H]4C(C)(C)/C(=N/O)CC[C@@]45CC35CC[C@]12C (stereo not given in full)", "assayed_target": "SK-MEL-2 melanoma", "GI50": "13.4 µM"}
{"compound": "COc1ccc2c(c1)c(-c1cc(-c3cn(C)c4ccc(OC)cc34)[nH]n1)cn2C", "assayed_target": "SK-MEL-2 melanoma", "GI50": "> 100 µM"}
{"compound": "COc1ccc(-c2nn(-c3cccc(Cl)c3)cc2/C=C2\\C(=N)N(c3ccccc3)N=C2N)cc1", "assayed_target": "SK-MEL-2 melanoma", "GI50": "1.66 µM"}
